Molecular target: MLLT1 (Homo sapiens, UniProt Q03111)
Sequence (Q03111 whole entry): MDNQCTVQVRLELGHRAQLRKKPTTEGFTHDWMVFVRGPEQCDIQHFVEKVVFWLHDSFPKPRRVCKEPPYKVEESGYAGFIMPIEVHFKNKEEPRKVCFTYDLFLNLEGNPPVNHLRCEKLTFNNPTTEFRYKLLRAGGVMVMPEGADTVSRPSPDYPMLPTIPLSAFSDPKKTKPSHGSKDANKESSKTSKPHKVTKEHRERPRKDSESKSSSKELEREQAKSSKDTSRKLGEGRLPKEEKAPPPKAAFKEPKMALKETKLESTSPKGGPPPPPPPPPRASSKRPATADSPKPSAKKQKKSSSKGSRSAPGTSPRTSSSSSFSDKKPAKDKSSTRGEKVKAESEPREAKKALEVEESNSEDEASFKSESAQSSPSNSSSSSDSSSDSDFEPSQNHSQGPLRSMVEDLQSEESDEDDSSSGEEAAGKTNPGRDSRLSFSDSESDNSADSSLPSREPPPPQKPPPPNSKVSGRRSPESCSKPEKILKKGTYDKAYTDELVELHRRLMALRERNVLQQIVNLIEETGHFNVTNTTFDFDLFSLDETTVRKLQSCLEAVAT
Assay: biochemical
Details: MLLT1 assay IC50 (nM), HTRF, 6His tagged MLLT1, biotinylated H3K9cro peptide; compound 20 μM to 20 nM, 11 data points in duplicate
Attribute Measured: IC50

Solved entries (count: 6):
{"columns": ["Molecule", "Reported Result"],
 "data": [
  ["CN1CCCC1c1cn2cc(NC(=O)c3ccc(-c4cnccn4)cc3F)ccc2n1 (single isomer, unassigned)", "150 to 1500 nM"],
  ["CN1CCCC1c1cn2cc(NC(=O)c3ccc(-n4cccn4)cc3)ccc2n1 (racemic)", "150 to 1500 nM"],
  ["Cc1nn(C)c2cc(C(=O)Nc3cn4cc(C5CCCN5C)nc4cc3F)ccc12 (racemic)", "150 to 1500 nM"],
  ["Cc1nn(C)c2cc(C(=O)Nc3cn4cc([C@H]5CCCN5C)nc4cn3)c(F)cc12", "150 to 1500 nM"],
  ["Cc1nc(NC(=O)c2cc3cnn(C)c3cc2Cl)cn2cc([C@H]3CCCN3C)nc12", "1500 to 20000 nM"],
  ["Cc1ncc(-c2ccc(F)c(C(=O)Nc3ccc4nc(C5CCCN5C)cn4c3)c2)s1 (single isomer, unassigned)", "150 to 1500 nM"]
]}

Read the next record carefully.
[in] Return reported IC50 for target or system MLLT1 (Homo sapiens, UniProt Q03111), item CN1CCCC1c1cn2cc(NC(=O)c3cccc(-n4cccn4)c3)ccc2n1 (racemic) .
[out] 150 to 1500 nM
